# Test system: non-small lung cancer cell line A549
# test-description: MTT assay, compounds related to LD030 on A549 cells
# Format: cell-based
# measurement-setup: Homo sapiens, A549; 100 μM, 48 hours; read-out: Effects on A549 Cells (inhibitory percentage)
measure: inhibition at 100 µM (%)

> print(dat)
                                   compound  unit.of.measurement  result.value
1  CC(CCC(O)C(C)(C)O)C1CC[C@@]2(C)C34CC[C@H]5C(C)(C)[C@@H](O)CC[C@]5(C)C3(CC[C@]12C)O4 (stereo partly drawn)                    %          34.6
2  CC(=O)O[C@H]1CC[C@@]2(C)[C@@H](CCC34OC32CC[C@]2(C)C(C(C)CCC3OC3(C)C)CC[C@@]42C)C1(C)C (stereo partly drawn)                    %            33
3  CC(=O)O[C@H]1CC[C@]2(C)C3CC[C@]4(C)C(C(C)CCC(O)C(C)(C)O)CC[C@@]4(C)C3CC[C@H]2C1(C)C (stereo partly drawn)                    %          29.2
4  CC(=O)O[C@H]1CC[C@@]2(C)[C@@H](CCC34OC32CC[C@]2(C)C(C(C)CCC(O)C(C)(C)O)CC[C@@]42C)C1(C)C (stereo partly drawn)                    %          58.6
5  CC(CCC(=O)C(C)(C)O)C1CC[C@@]2(C)C34CC[C@H]5C(C)(C)C(=O)CC[C@]5(C)C3(CC[C@]12C)O4 (stereo partly drawn)                    %          16.9
6  CC(=O)OC(CCC(C)C1CC[C@@]2(C)C3=C(CC[C@]12C)[C@@]1(C)CCC(=O)C(C)(C)[C@@H]1CC3)C(C)(C)OC(C)=O (stereo partly drawn)                    %          34.6
